# Lookup of reported IC50 keyed by entry
# measured.target: UniProt P56524
# Sequence (P56524 whole entry): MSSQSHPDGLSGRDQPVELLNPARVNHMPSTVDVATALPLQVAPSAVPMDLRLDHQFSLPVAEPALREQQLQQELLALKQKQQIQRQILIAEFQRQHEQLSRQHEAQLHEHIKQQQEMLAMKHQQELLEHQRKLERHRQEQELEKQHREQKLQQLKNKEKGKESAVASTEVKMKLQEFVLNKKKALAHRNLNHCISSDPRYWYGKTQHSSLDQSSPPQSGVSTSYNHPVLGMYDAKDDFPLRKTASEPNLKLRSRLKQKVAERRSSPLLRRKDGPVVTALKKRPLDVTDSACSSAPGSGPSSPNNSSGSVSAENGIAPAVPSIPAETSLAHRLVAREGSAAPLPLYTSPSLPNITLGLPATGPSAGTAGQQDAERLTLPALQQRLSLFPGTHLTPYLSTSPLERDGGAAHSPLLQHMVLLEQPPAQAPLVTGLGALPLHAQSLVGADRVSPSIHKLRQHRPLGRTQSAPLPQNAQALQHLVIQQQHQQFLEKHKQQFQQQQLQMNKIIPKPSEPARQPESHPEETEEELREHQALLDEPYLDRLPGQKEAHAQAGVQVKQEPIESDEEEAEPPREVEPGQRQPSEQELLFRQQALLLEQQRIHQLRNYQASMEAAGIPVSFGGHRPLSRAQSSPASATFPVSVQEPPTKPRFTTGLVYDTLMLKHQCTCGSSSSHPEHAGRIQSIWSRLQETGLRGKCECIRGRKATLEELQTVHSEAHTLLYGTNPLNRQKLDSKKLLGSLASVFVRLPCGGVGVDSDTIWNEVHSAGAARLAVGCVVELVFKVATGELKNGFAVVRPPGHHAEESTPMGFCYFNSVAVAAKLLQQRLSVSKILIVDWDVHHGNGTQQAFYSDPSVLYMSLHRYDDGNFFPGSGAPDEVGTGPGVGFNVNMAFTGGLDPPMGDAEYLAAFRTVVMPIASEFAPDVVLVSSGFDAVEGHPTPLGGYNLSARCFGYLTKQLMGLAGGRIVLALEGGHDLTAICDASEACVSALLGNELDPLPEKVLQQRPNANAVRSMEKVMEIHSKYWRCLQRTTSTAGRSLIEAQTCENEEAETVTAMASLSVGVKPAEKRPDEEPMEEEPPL
# protocol.details: Inhibition activity against histone deacetylase 4 (fluorescence, AMC substrate)
# Assay type: biochemical
# condition.set: IC50 ± SD/SE; read-out: IC50 HDAC4
readout: IC50 (nM)

INSERT INTO assay_data (compound, unit_of_measurement, endpoint_result) VALUES
  ('CCc1sc(-c2nccs2)nc1C(=O)NCCCCC(=O)C(F)(F)F [HD 53]', 'nM', 40),
  ('O=C(CO)N/N=C(/CCCCNC(=O)c1nc(-c2nccs2)sc1C1CC1)C(F)(F)F [HD 46]', 'nM', 450),
  ('O=C(NCCCCC(=O)C(F)(F)F)c1nc(-c2nccs2)sc1Cc1ccccc1 [HD 54]', 'nM', 70),
  ('Cc1cnc(-c2nc(C(=O)NCCCCC(=O)C(F)(F)F)c(C3CC3)s2)s1 [HD 55]', 'nM', 70),
  ('CC(C)Cc1sc(-c2nccs2)nc1C(=O)NCCCCC(=O)C(F)(F)F [HD 6]', 'nM', 40),
  ('O=C(NCCCCC(=O)C(F)(F)F)c1nc(-c2nc3c(s2)CCCC3)sc1C1CC1 [HD 3]', 'nM', 20),
  ('CC(=O)N/N=C(\CCCCNC(=O)c1nc(-c2nccs2)sc1C1CC1)C(F)(F)F [HD 37]', 'nM', 160),
  ('O=C(NCCCCC(=O)C(F)(F)F)c1nc(-c2nccs2)sc1C1CC1 [HD 1]', 'nM', 20);
